Value source: PubChem BioAssay (NCI)

System: M14 melanoma
Test: NCI tumour cell line growth inhibition, 48 h
Where a SMILES comes first, the peptide text is derived from it. [ ]: non-standard residue; d: D form. The star is where a group is joined. ξ: configuration not given here. NMeN = CN[C@@H](CC(N)=O)C(=O)O; NMeV = CN[C@H](C(=O)O)C(C)C; ξNMeV = CNC(C(=O)O)C(C)C; Boc = CC(C)(C)OC(=O)*; ξNMeA = CNC(C)C(=O)O
observable: TGI

compound=Cn1c(Nc2ccccc2)c(C=Nc2ccccc2)c(=O)n(C)c1=O observable=TGI result="> 100 µM"
compound="C=C1CC(C)(COc2ccc3ccc(=O)oc3c2)OC1=O (stereo not given)" observable=TGI result="4.97 µM"
compound=O=[N+]([O-])c1ccc(Nc2nc3ccccc3s2)cc1 observable=TGI result="> 100 µM"
compound="COC(=O)C(C)N(C)C(=O)[C@H](CC(N)=O)N(C)C(=O)[C@@H]1CCCN1C(=O)[C@H](C(C)C)N(C)C(=O)C(C(C)C)N(C)C(=O)[C@@H](NC(=O)OC(C)(C)C)C(C)C (stereo not given in full) (Boc-V[ξNMeV][NMeV]P[NMeN][ξNMeA]-OMe)" observable=TGI result="> 100 µM"
compound=C=C(C)CN(CC#N)CC(=C)C observable=TGI result="> 100 µM"
compound=O=C1c2ccccc2-c2ccc(N=Nc3c(O)ccc4ccccc34)cc21 observable=TGI result="> 100 µM"

Dear reader, for each entry below, please note its TGI.
1. COc1ccc2c(c1)N=C1CSC(c3cccc(Br)c3)N1C2 (stereo not given)
2. O=C(O)c1ccc2c(c1)CC1(C2)Cc2ccccc2C1=O (stereo not given)
3. COc1ccc(C(=O)OC2C=COC(C)C2OC(=O)c2ccc(OC)cc2)cc1 (stereo not given)
4. COc1c2ccccc2c(OC)c2nc(C)ccc12

// result
1: 36.2 µM; 2: > 100 µM; 3: 35.9 µM; 4: > 100 µM
